target: T1, human DLL4 extracellular domain (human, UniProt Q9NR61 27-529); test: SPR (Biacore)
T1 construct: purified recombinant ECD; biotin-labelled or 6xHis-tagged depending on the assay; also called huDLL4 ECD; hu DLL4 ECD
T1 sequence (Q9NR61 27-529 limits assumed): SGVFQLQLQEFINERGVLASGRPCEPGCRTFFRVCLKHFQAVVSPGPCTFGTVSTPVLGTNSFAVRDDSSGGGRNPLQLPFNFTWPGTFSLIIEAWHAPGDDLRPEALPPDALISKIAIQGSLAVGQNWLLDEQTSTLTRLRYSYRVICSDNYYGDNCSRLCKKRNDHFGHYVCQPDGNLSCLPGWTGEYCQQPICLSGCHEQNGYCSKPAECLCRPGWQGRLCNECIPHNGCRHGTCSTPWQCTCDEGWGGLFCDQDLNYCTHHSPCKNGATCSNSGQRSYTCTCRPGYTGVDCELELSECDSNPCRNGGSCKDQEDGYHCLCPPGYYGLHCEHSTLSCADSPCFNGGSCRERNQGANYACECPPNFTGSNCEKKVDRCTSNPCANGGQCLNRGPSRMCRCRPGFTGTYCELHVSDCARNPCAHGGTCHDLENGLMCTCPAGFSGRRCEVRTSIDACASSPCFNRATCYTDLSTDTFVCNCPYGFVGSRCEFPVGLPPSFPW
# key: entry, value: koff
reportedMetric: koff

- h1A11.A12 (antibody, V domains shown, also called h1A11VH.1 / h1A11.A12 VL) VH: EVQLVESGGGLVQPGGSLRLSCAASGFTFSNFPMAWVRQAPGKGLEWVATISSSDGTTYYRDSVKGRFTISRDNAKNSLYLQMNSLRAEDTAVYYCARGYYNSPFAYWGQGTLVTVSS VL: DIQMTQSPSSLSASVGDRVTITCRASQDIYYNLAWYQQKPGKSPKLLIFDTSSLADGVPSRFSGSGSGTDFTLTISSLQPEDFATYFCQQYDWYPPTFGQGTKLEIK: 0.00132 s⁻¹
- h1A11.A8 (antibody, V domains shown, also called h1A11.A8 VH / h1A11VL.1) VH: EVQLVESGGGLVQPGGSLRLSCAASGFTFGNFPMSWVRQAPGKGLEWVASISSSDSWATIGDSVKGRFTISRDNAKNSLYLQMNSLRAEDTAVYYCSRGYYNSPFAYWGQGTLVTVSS VL: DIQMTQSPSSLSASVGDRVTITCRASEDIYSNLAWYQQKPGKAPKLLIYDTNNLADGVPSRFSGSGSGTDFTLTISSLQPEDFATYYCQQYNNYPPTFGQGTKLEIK: 1.08e-05 s⁻¹
- h1A11.A11 (antibody, V domains shown, also called h1A11.A11 VH / h1A11VL.1) VH: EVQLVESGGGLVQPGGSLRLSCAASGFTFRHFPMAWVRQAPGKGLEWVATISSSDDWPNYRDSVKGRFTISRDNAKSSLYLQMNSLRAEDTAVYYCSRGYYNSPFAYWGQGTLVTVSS VL: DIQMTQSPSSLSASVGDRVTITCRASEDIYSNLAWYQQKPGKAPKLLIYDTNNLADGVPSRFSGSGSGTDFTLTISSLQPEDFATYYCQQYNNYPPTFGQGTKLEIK: 2.66e-05 s⁻¹
- h1A11.A6 (antibody, V domains shown, also called h1A11.A6 VH / h1A11VL.1) VH: EVQLVESGGGLVQPGGSLRLSCAASGFTFRHFPMAWVRQAPGKGLEWVATISSSDAWPSYRDSVKGRFTISRDNAKNSLYLQMNSLRAEDTAVYYCSRGYYNSPFAYWGQGTLVTVSS VL: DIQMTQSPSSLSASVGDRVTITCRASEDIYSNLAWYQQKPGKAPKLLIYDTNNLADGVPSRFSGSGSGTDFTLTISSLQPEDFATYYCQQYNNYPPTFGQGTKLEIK: 6.62e-06 s⁻¹
- h1A11.C6 (antibody, V domains shown, also called h1A11.C6 VH / h1A11VL.1) VH: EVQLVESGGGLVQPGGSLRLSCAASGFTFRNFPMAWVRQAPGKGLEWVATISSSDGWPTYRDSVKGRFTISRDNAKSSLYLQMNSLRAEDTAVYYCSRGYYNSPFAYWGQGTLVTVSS VL: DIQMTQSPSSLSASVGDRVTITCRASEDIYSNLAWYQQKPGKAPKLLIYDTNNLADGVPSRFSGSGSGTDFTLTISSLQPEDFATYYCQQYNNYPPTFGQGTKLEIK: 7.18e-06 s⁻¹
- h1A11.A2 (antibody, V domains shown, also called h1A11VH.1 / h1A11.A2 VL) VH: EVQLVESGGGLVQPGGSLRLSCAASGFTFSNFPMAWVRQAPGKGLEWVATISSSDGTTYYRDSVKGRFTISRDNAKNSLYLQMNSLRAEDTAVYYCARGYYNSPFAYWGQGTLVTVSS VL: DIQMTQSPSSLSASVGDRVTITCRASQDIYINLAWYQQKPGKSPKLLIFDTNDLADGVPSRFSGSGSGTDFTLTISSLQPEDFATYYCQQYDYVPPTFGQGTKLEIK: 0.000421 s⁻¹
- h1A11.E12 (antibody, V domains shown, also called h1A11.E12 VH / h1A11.E12 VL) VH: EVQLVESGGGLVQPGGSLRLSCAASGFTFRYFPMAWVRQAPGKGLEWVATISGSDEWPNYRDSVKGRFTISRDNAKNSLYLQMNSLRAEDTAVYYCARGYYNSPFAFWGQGTLVTVSS VL: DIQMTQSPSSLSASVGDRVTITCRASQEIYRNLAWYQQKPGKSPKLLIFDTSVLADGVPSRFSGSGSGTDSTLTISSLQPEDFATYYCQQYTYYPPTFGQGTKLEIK: 3.26e-05 s⁻¹
- h1A11.1 (antibody, V domains shown, humanized IgG; also called hu1A11.1; VH.1/VL.1 1A11) VH: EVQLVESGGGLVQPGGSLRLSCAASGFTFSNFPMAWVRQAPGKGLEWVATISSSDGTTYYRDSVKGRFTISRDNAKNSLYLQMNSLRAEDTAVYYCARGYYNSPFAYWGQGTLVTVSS VL: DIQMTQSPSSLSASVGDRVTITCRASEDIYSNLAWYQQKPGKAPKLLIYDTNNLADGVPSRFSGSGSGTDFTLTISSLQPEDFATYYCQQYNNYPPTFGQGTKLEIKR: 0.00212 s⁻¹
- h1A11.A7 (antibody, V domains shown, also called h1A11VH.1 / h1A11.A7 VL) VH: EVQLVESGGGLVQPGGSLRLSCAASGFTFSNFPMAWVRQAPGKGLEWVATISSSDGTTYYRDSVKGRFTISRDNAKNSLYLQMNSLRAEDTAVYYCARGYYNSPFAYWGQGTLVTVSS VL: DIQMTQSPSSLSASVGDRVTITCRASQDIYINLAWYQQKPGKAPKLLIFDTSDLADGVPSRFSGSGSGTDFTLTISSLQPEDFATYYCQQYDYYPPTFGQGTKLEIK: 0.000973 s⁻¹
- h1A11.B4 (antibody, V domains shown, also called h1A11VH.1 / h1A11.B4 VL) VH: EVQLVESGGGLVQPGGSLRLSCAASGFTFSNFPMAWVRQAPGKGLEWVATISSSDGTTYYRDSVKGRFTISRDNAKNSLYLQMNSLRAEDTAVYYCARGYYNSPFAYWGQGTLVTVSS VL: DIQMTQSPSSLSASVGDRVTITCRASQDIYYNLAWYQQKPGKAPKLLIFDTNILADGVPSRFSGSGSGTDFTLTISSLQPEDFATYFCQQYDYVPPTFGQGTKLEIK: 0.000823 s⁻¹
- h1A11.F5 (antibody, V domains shown, also called h1A11.F5 VH / h1A11.E12 VL) VH: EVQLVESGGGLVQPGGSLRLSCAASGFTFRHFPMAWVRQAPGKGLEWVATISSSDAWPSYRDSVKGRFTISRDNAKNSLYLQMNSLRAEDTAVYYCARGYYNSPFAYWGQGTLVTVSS VL: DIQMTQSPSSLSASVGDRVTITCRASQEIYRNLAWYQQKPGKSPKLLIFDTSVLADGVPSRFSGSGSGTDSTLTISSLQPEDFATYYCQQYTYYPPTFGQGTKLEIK: 9.82e-06 s⁻¹
